Measured pKd by item
Target: T1, human PD-1 on transfected cells (human, UniProt Q15116 25-288)
T1 construct: also called CHO-S cells expressing human PD-1; human PD-1 transfected CHO-S cells
T1 sequence (Q15116 25-288 limits assumed): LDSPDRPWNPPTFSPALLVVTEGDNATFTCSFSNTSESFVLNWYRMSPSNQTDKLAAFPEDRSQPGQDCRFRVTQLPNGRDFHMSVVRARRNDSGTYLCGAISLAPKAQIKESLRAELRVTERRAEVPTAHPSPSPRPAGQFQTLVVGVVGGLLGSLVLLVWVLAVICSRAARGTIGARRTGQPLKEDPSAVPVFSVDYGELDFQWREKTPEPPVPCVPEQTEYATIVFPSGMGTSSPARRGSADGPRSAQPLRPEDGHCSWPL
Test: flow cytometry on CHO-S cells expressing human PD-1, quantitative beads
pKd: −log10 of the molar value.
endpoint_name: pKd

>>> reported_value("2E5 (antibody, human IgG4, V domains shown) VH: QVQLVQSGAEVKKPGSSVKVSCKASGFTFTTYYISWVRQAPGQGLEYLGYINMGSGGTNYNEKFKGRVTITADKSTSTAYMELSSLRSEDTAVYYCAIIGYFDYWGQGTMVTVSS VL: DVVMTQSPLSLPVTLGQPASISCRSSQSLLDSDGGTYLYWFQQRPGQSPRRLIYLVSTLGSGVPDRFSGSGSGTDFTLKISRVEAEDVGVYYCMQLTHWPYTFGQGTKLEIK")
9.64
>>> reported_value("1H6 (antibody, human IgG4, V domains shown) VH: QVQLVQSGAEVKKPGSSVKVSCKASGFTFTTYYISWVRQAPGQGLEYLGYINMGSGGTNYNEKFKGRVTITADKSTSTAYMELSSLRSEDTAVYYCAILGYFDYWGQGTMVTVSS VL: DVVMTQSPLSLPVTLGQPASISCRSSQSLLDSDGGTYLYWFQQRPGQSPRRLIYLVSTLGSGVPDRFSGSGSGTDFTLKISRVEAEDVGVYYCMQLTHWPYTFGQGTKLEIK")
9.67
>>> reported_value("2C2 (antibody, human IgG4, V domains shown) VH: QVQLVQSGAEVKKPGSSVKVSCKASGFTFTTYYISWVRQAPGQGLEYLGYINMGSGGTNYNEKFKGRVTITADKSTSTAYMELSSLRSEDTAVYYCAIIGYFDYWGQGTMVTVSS VL: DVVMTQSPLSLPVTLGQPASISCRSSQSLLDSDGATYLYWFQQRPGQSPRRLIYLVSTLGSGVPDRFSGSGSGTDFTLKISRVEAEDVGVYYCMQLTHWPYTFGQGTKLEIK")
9.58
>>> reported_value("2G4 (antibody, human IgG4, V domains shown) VH: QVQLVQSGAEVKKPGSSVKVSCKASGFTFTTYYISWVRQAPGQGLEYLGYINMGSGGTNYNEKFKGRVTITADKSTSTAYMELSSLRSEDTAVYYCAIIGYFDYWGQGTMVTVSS VL: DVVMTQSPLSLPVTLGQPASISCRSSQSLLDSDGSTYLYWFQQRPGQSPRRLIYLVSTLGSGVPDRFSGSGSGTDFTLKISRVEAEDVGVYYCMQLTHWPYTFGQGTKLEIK")
9.42
